System: NCI-H23 lung
Assay: NCI-60 one-dose screen, 48 h (100 = growth as untreated, 0 = no growth, -100 = all killed)
Conditions: 10 µM unless noted
Compounds without any hit were thinned out: in the full panel of roughly 83,000, 20% have a hit. The source made the active and inactive calls. The calls were made as follows: active = growth percent below 10; inactive = the rest.
Measured growth, listed per entry for reference.

**Query** # returns recorded growth (system: NCI-H23 lung) for "C=CCn1c(SCC(=O)Nc2ccc(C(=O)/C=C/c3ccc(Cl)cc3)cc2)nnc1-c1ccc(Cl)cc1"
**Result** 82.8% (inactive)

**Query** Quick one: Fc1[nH]nc2ccc([C@@H]3Nc4ccc5[nH]ncc5c4[C@H]4C5CCC(C5)[C@@H]34)cc12 (some centres undefined)
**Result** 45.2% (inactive)

**Query** Subsequent entry: CC1(C)C2CCC(O)(C(=O)O)C1C2 (centres undefined)
**Result** 113% (inactive)

**Query** Please give the result for "N#Cc1nc(-c2ccc(Cl)cc2)cc(-c2ccc(Nc3nc(N4CCCCC4)nc(N4CCCCC4)n3)cc2)c1N" too.
**Result** 92.1% (inactive)

Continuing:
**Query** NCI-H23 lung / growth / "COc1ccc(NC(=O)/C=C/c2ccc(NC(=O)N3CCCC3)cc2)cn1" : value?
**Result** 105% (inactive)

**Query** How about "C=CCn1c(SCC(=O)Nc2ccc(/C(C)=N\O)cc2)nnc1-c1cc(-c2ccccc2)nc2ccccc12" ?
**Result** 38.9% (inactive)

**Query** For COc1ccc2[nH]cc(C(c3ccc(Cl)cc3)N3CCCC3)c2c1 (centres undefined) then?
**Result** 93.2% (inactive)

**Query** Now consider "COc1ccc(C2=Nn3c(nnc3-c3ccc(Cl)cc3N)SC2)cc1" and answer again.
**Result** 105% (inactive)

**Query** Let us now turn to O=C(Oc1c(Cl)c(Cl)c(Cl)c(Cl)c1Cl)C1CCCN1C(=O)OCc1ccccc1 (centres undefined)
**Result** 33.5% (inactive)
